- METHOD_SUMMARY: Vero cell viability (MTS assay)
- Type: cell-based
- REPORTED_CONDITIONS: African green monkey, Vero cell CC50 (HSV-1)
READOUT_NAME: CC50 (µM)
Output spec: scalar in µM, unitless text.

May I ask what CC50 has been recorded for Nc1nc2c(ncn2COCCO)c(=O)[nH]1 [ACV, Acyclovir, reference compound] ? 698

====

- Tested on: HIV-1 NL 4.3 WT
- METHOD_SUMMARY: Antiviral activity on human CD4+ T lymphocytes, NL4.3 WT
- Format: cell-based
- REPORTED_CONDITIONS: Human immunodeficiency virus 1, read-out: NL 4.3 WT EC50
READOUT_NAME: EC50 (nM)
Give the value, in units of nM, as a plain number.

Which EC50 value is on record for Cc1nnc(C(=O)NC(C)(C)c2nc(C(=O)NCc3ccc(F)cc3)c(O)c(=O)n2C)o1 [RAL, raltegravir, reference compound] ? 3

====

- METHOD_SUMMARY: Vero cell viability (MTS assay)
- Type: cell-based
- REPORTED_CONDITIONS: African green monkey, Vero cell CC50 (HSV-2 acyclovir resistant rows)
READOUT_NAME: CC50 (µM)
Number only, in µM; omit the unit.

MOLECULE	CC50 / µM
O=C(O)c1ccc(-c2ccc(/C=C3\SC(=S)N(Cc4ccc(Cl)cc4)C3=O)o2)cc1O	112

Next molecule, CC50 to be filled in.
Query: CC50; subject: Nc1nc2c(ncn2COCCO)c(=O)[nH]1 [ACV, Acyclovir, reference compound] 732

====

// values below are reported CC50
- METHOD_SUMMARY: Cytotoxicity on TZM-bl cells (XTT test)
- Format: cell-based
- REPORTED_CONDITIONS: human, read-out: Citotoxicity (TZM-bl cells) CC50

The following molecules have reported results that may help.
MOLECULE	READOUT_NAME	EXPERIMENTAL_RESULT
O=C(O)c1ccc(-c2ccc(/C=C3\SC(=S)N(CCCc4ccccc4)C3=O)o2)cc1O	CC50	> 20 µM
O=C(O)c1ccc(-c2ccc(/C=C3\SC(=S)N(c4ccc(F)c(Cl)c4)C3=O)o2)cc1O	CC50	> 20 µM
O=C(O)c1ccc(-c2ccc(/C=C3\SC(=S)N(Cc4ccc(F)cc4)C3=O)o2)cc1O	CC50	> 20 µM
O=C(O)c1ccc(-c2ccc(/C=C3\SC(=S)N(Cc4ccc(Cl)c(F)c4)C3=O)o2)cc1O	CC50	> 20 µM
CCc1ccc(CCN2C(=O)/C(=C/c3ccc(-c4ccc(C(=O)O)c(O)c4)o3)SC2=S)cc1	CC50	12.3 µM

Which CC50 value is on record for Cc1nnc(C(=O)NC(C)(C)c2nc(C(=O)NCc3ccc(F)cc3)c(O)c(=O)n2C)o1 [RAL, raltegravir, reference compound] ? > 20 µM

Quick one: CC50 of O=C(O)c1ccc(-c2ccc(/C=C3\SC(=S)N(CCc4ccc(F)cc4)C3=O)o2)cc1O ? 2.2 µM

Request the reported CC50 associated with O=C(O)c1ccc(-c2ccc(/C=C3\SC(=S)N(Cc4ccc(Cl)cc4)C3=O)o2)cc1O > 20 µM

Entry Cc1ccc(CCN2C(=O)/C(=C/c3ccc(-c4ccc(C(=O)O)c(O)c4)o3)SC2=S)cc1 : reported CC50 = ? > 20 µM

====

- METHOD_SUMMARY: Parallel Artificial Membrane Permeability Assay (PAMPA)
- Type: in vitro ADME
- REPORTED_CONDITIONS: pH 7.4, 5 h
Papp overview

ENTRY_SMILES	EXPERIMENTAL_RESULT
O=C(O)c1ccc(-c2ccc(/C=C3\SC(=S)N(c4ccc(F)c(Cl)c4)C3=O)o2)cc1O	0.92 1·10^-6cm/sec
O=C(O)c1ccc(-c2ccc(/C=C3\SC(=S)N(Cc4ccc(F)cc4)C3=O)o2)cc1O	1.28 1·10^-6cm/sec
O=C(O)c1ccc(-c2ccc(/C=C3\SC(=S)N(Cc4ccc(Cl)cc4)C3=O)o2)cc1O	1.26 1·10^-6cm/sec
O=C(O)c1ccc(-c2ccc(/C=C3\SC(=S)N(CCc4ccc(F)cc4)C3=O)o2)cc1O	0.4 1·10^-6cm/sec
O=C(O)c1ccc(-c2ccc(/C=C3\SC(=S)N(Cc4ccc(Cl)c(F)c4)C3=O)o2)cc1O	0.87 1·10^-6cm/sec
CCc1ccc(CCN2C(=O)/C(=C/c3ccc(-c4ccc(C(=O)O)c(O)c4)o3)SC2=S)cc1	1.50 1·10^-6cm/sec
Cc1ccc(CCN2C(=O)/C(=C/c3ccc(-c4ccc(C(=O)O)c(O)c4)o3)SC2=S)cc1	2.32 1·10^-6cm/sec

Which Papp value belongs to O=C(O)c1ccc(-c2ccc(/C=C3\SC(=S)N(CCCc4ccccc4)C3=O)o2)cc1O ? 1.23 1·10^-6cm/sec
